tested on: RAW-Dual; assay: IRF Lucia reporter activity, fold change vs agonist alone; cytotoxicity flag (confluency mask): not cytotoxic; higher = enhanced IRF activity; settings: agonist: 3'3'-cGAMP (STING) 10 ug/mL
In all, about 2,900 compounds were measured (“IRF Lucia reporter activity, fold change vs agonist alone”: median about 0.9, highest 2% from about 2.8 on). What follows is part of a selection rich in the highest values, with near analogues and random picks from the rest.
Measurement name: IRF Lucia reporter activity
Write no unit; give the number alone.

q: Sample Cn1cc(-c2cc3c(-c4ccc(CNC(=O)c5noc(C(C)(C)C)n5)c(F)c4)ncnc3[nH]2)cn1 (library stock concentration (final ~1000-fold dilution): 10 mM) — what was its IRF Lucia reporter activity?
a: 0.039

q: Sample COC(=O)C1=C(C)NC(C)=C(C(=O)OC(C)(C)CN(C)CCC(c2ccccc2)c2ccccc2)C1c1cccc([N+](=O)[O-])c1 (stereo not drawn) (library stock concentration (final ~1000-fold dilution): 10 mM) — what was its IRF Lucia reporter activity?
a: 0.134

q: Sample CC(c1ncncc1F)C(O)(Cn1cncn1)c1ccc(F)cc1F (stereo not drawn) (library stock concentration (final ~1000-fold dilution): 10 mM) — what was its IRF Lucia reporter activity?
a: 1.11

q: Sample CN1CCc2c(c3ccccc3n2Cc2ccc(C(=O)NO)cc2)C1 (library stock concentration (final ~1000-fold dilution): 10 mM) — what was its IRF Lucia reporter activity?
a: 0.943

q: Sample CS(=O)(=O)O.Cc1ccc(N(CC2=NCCN2)c2cccc(O)c2)cc1 (library stock concentration (final ~1000-fold dilution): 10 mM) — what was its IRF Lucia reporter activity?
a: 0.803

q: Sample COc1cc(F)c(C(C)C)cc1-c1ccc(C(F)(F)F)cc1CN1C(=O)OC(c2cc(C(F)(F)F)cc(C(F)(F)F)c2)C1C (stereo not drawn) (library stock concentration (final ~1000-fold dilution): 10 mM) — what was its IRF Lucia reporter activity?
a: 1.12

q: Sample Cc1cccc(/C=N/Nc2cc(N3CCOCC3)nc(OCCc3ccccn3)n2)c1 (library stock concentration (final ~1000-fold dilution): 10 mM) — what was its IRF Lucia reporter activity?
a: 0.326

q: Sample CCOC(=O)CCNc1cc(N2CCc3ccccc3CC2)nc(-c2ccccn2)n1.Cl (library stock concentration (final ~1000-fold dilution): 10 mM) — what was its IRF Lucia reporter activity?
a: 1.03

---

system: RAW-Dual; test: IRF Lucia reporter activity, fold change vs agonist alone; cytotoxicity flag (confluency mask): not cytotoxic; higher = enhanced IRF activity; conditions: agonist: LPS (TLR4) 0.1 ug/mL
Over roughly 2,900 compounds, “IRF Lucia reporter activity, fold change vs agonist alone” has its median near 0.9; the highest 2% begin near 2.8. Many of the other results were omitted from the sample, so the highest values are more common in it than they were.
Measurement name: IRF Lucia reporter activity
Write no unit; give the number alone.

q: Sample Cc1cc(C(C)Nc2ccccc2C(=O)O)c2nc(N3CCOCC3)cc(=O)n2c1 (stereo not given) (library stock concentration (final ~1000-fold dilution): 10 mM) — what was its IRF Lucia reporter activity?
a: 1.04

q: Sample O=C(Nc1ccc(OC(F)(F)Cl)cc1)c1cnc(N2CCC(O)C2)c(-c2ccn[nH]2)c1 (stereo not given) (library stock concentration (final ~1000-fold dilution): 10 mM) — what was its IRF Lucia reporter activity?
a: 1.27

q: Sample COc1ccc2c(OC3CC4C(=O)NC5(C(=O)NS(=O)(=O)C6CC6)CC5/C=C\CCCCN(C)C(=O)C4C3)cc(-c3nc(C(C)C)cs3)nc2c1C (stereo not given) (library stock concentration (final ~1000-fold dilution): 10 mM) — what was its IRF Lucia reporter activity?
a: 1.18

q: Sample Cc1ccsc1C(=CCCN1CCCC(C(=O)O)C1)c1sccc1C (stereo not given) (library stock concentration (final ~1000-fold dilution): 10 mM) — what was its IRF Lucia reporter activity?
a: 1.29

q: Sample NC(=O)C(CCC(F)(F)F)N(Cc1ccc(-c2ncon2)cc1F)S(=O)(=O)c1ccc(Cl)cc1 (stereo not given) (library stock concentration (final ~1000-fold dilution): 10 mM) — what was its IRF Lucia reporter activity?
a: 1.56

q: Sample CC(c1ccc2nccn2c1)n1nnc2ncc(-c3cnn(C)c3)nc21 (stereo not given) (library stock concentration (final ~1000-fold dilution): 10 mM) — what was its IRF Lucia reporter activity?
a: 1.15

q: Sample O=C(c1cc(-c2cc3c(cc2C(=O)N2Cc4ccccc4CC2CN2CCOCC2)OCO3)n2c1CCCC2)N(c1ccccc1)c1ccc(O)cc1 (stereo not given) (library stock concentration (final ~1000-fold dilution): 10 mM) — what was its IRF Lucia reporter activity?
a: 0.935

q: Sample CC1CCC2C(C)C(OC(=O)CCC(=O)O)OC3OC4(C)CCC1C32OO4 (stereo not given) (library stock concentration (final ~1000-fold dilution): 10 mM) — what was its IRF Lucia reporter activity?
a: 0.706

q: Sample Br.Br.Br.Br.Br.Br.c1ccc(CNCc2ccc(CN3CCCNCCNCCCNCC3)cc2)nc1 (library stock concentration (final ~1000-fold dilution): 10 mM water) — what was its IRF Lucia reporter activity?
a: 0.886

q: Sample Cc1ccc(Nc2nccc(N(C)c3ccc4c(C)n(C)nc4c3)n2)cc1S(N)(=O)=O.Cl (library stock concentration (final ~1000-fold dilution): 10 mM) — what was its IRF Lucia reporter activity?
a: 0.446
